condition: in DMSO, 313.15 K
outcome measure: solubility (mole fraction)
I only need the number, thanks.

Query: solubility (mole fraction) for "NC(N)=C([N+](=O)[O-])[N+](=O)[O-]" ?
Reply: 0.189

* * *

condition: in cyclopentanone, 333.15 K
outcome measure: solubility (mole fraction)

Query: Could you tell me which solubility (mole fraction) is on file for "NC(N)=C([N+](=O)[O-])[N+](=O)[O-]" ?
Reply: 0.0128

* * *

condition: in DMSO, 308.15 K
outcome measure: solubility (mole fraction)

Query: Quick check: solubility (mole fraction) of "NC(N)=C([N+](=O)[O-])[N+](=O)[O-]" ?
Reply: 0.184
